# assay overview: Stability in pH 5.0 0.3 M acetate buffer assessed as time duration in which 90% produg stability at 1 mg by HPLC method
# Type: physicochemical
# test parameters: in vitro
reported property: Time (days)
State the answer as a number, implicitly in days.

Previously resolved entries follow.
{"compound": "O=C(O[C@@H]1CC[C@@]2(O)[C@H]3Cc4ccc(O)c5c4[C@@]2(CCN3CC2CC2)[C@H]1O5)[C@@H]1CCCN1", "unit label": "days", "Time": 0.217}
{"compound": "CCC(C)[C@H](N)C(=O)O[C@@H]1CC[C@@]2(O)[C@H]3Cc4ccc(O)c5c4[C@@]2(CCN3CC2CC2)[C@H]1O5 (stereo partly specified)", "unit label": "days", "Time": 14}
{"compound": "CC(C)[C@H](N)C(=O)O[C@@H]1CC[C@@]2(O)[C@H]3Cc4ccc(O)c5c4[C@@]2(CCN3CC2CC2)[C@H]1O5", "unit label": "days", "Time": 5.2}
{"compound": "C[C@H](N)C(=O)O[C@@H]1CC[C@@]2(O)[C@H]3Cc4ccc(O)c5c4[C@@]2(CCN3CC2CC2)[C@H]1O5", "unit label": "days", "Time": 0.412}
{"compound": "CC(C)C[C@H](N)C(=O)O[C@@H]1CC[C@@]2(O)[C@H]3Cc4ccc(O)c5c4[C@@]2(CCN3CC2CC2)[C@H]1O5", "unit label": "days", "Time": 0.9}

Turning now to a further compound:
Incoming: // Time lookup, key: NCCC(=O)O[C@@H]1CC[C@@]2(O)[C@H]3Cc4ccc(O)c5c4[C@@]2(CCN3CC2CC2)[C@H]1O5
Outgoing: 5.6
